# ASSAY PROCEDURE: self-splicing fitness, log relative to wild type (ln ratio); higher = more splicing; Tetrahymena group I intron in knt gene, E. coli kanamycin selection, DiMSum; sequences stand for … in CUCUCU…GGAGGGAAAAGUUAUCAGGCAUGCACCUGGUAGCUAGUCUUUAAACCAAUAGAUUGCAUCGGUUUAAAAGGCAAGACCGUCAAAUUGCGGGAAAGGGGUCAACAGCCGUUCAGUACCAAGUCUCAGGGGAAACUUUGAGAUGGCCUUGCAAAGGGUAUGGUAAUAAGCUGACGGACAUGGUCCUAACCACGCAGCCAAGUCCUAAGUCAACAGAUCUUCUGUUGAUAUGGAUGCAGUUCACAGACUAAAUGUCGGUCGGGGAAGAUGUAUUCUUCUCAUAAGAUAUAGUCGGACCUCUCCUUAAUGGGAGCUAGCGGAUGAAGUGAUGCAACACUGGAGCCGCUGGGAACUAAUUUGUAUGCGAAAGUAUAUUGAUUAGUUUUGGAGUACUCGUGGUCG;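 also: selection with 25 µg/mL kanamycin versus none on LB agar overnight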
# ASSAY SETUP: 30 °C
RESULT TYPE: self-splicing fitness (ln)
Answers are plain numbers.

SEQ TEXT: AAGGAGCAAUAUUACGACUG
self-splicing fitness (ln): -1.75

SEQ TEXT: CAUGAGCAAUAUUACGACCU
self-splicing fitness (ln): -2.47

SEQ TEXT: GCACAGCAAUAUUACGGCGG
self-splicing fitness (ln): -3.29

SEQ TEXT: CGCGAGCAAUAUUACGUUUC
self-splicing fitness (ln): -4.02

SEQ TEXT: CACUAGCAAUAUUACGACAU
self-splicing fitness (ln): -3.21

// batch mode: one self-splicing fitness (ln) value per listed entry
1. CUCUAGCAAUAUUACGCCGU
2. CUAGAGCAAUAUUACGUGCU
3. UCGUAGCAAUAUUACGGCUU
4. UUGUAGCAAUAUUACGGAGC
5. UCCCAGCAAUAUUACGCUAU
6. CUGAAGCAAUAUUACGCUUU
7. UAAGAGCAAUAUUACGAUCU
8. GACCAGCAAUAUUACGCCGA

a:
1. -2.12
2. -3.54
3. -2.85
4. -3.08
5. -4.27
6. -3.4
7. -2.51
8. -0.69

Kindly give each listed record's self-splicing fitness (ln).
1. ACACAGCAAUAUUACGUUGU
2. GUAGAGCAAUAUUACGGAGC
3. ACCGAGCAAUAUUACGAAAG

a:
-2.31
-0.91
-3.42

---

# ASSAY PROCEDURE: self-splicing fitness, log relative to wild type (ln ratio); higher = more splicing; Tetrahymena group I intron in knt gene, E. coli kanamycin selection, DiMSum; sequences stand for … in CUCUCU…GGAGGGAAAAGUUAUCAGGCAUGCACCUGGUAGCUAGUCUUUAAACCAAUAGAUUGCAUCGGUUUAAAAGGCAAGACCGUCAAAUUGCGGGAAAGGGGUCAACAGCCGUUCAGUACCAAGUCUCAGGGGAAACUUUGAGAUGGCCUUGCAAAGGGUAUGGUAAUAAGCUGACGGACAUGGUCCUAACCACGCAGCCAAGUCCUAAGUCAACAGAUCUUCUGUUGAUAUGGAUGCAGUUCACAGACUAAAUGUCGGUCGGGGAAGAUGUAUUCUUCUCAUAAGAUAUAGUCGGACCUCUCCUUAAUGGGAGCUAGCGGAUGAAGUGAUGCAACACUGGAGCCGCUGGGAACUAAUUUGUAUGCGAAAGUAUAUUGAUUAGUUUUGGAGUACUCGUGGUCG
# ASSAY SETUP: 37 °C
RESULT TYPE: self-splicing fitness (ln)

SEQ TEXT: GGGUAGCAAUAUUACGUAGU
self-splicing fitness (ln): -0.762

Hi, could you look up self-splicing fitness (ln) for each item in my list?
1. CUAGAGCAAUAUUACGCGCA
2. GUAGAGCAAUAUUACGUGCU
3. AAUAAGCAAUAUUACGGACU
4. UGUAAGCAAUAUUACGCCUU
5. GCUGAGCAAUAUUACGUCUU

a:
1. -1.21
2. -1.29
3. 0.349
4. -1.5
5. -1.17

---

# ASSAY PROCEDURE: self-splicing fitness, log relative to wild type (ln ratio); higher = more splicing; Tetrahymena group I intron in knt gene, E. coli kanamycin selection, DiMSum; sequences stand for … in CUCUCU…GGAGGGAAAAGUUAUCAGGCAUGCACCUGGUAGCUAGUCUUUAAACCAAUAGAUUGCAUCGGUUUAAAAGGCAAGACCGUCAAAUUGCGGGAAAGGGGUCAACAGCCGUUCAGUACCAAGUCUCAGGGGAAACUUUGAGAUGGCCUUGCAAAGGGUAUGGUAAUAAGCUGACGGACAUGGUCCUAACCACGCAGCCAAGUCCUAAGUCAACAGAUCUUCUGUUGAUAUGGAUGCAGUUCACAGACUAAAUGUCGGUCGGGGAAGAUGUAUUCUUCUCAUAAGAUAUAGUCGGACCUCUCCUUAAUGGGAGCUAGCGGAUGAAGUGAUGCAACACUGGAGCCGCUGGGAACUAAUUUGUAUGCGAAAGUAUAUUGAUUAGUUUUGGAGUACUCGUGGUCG
# ASSAY SETUP: 30 °C
Provide the recorded self-splicing fitness (ln) for the entries that follow.
One number for each entry.

SEQ TEXT: ACGGAGCAAUAUUACGGAUG
self-splicing fitness (ln): -2.66

Answer for every listed entry: what is its self-splicing fitness (ln)? The entries follow.
1. CAUCAGCAAUAUUACGGCGC
2. CCAUAGCAAUAUUACGUCAU
3. GACCAGCAAUAUUACGGGAU
4. AGUAAGCAAUAUUACGGAUA
5. AAUUAGCAAUAUUACGAUGC
6. CGCGAGCAAUAUUACGGCUA
7. UGUAAGCAAUAUUACGUCAU
8. CCCUAGCAAUAUUACGUUUA

a:
1. -2.95
2. -4.08
3. -1.71
4. -2.85
5. -1.25
6. -1.23
7. -2.39
8. -2.91

Would you mind listing self-splicing fitness (ln) for each of the following sequences?
1. CACUAGCAAUAUUACGGGUU
2. UCAUAGCAAUAUUACGCCUA

a:
1. -2.05
2. -2.62

Hi, could you look up self-splicing fitness (ln) for each item in my list?
1. GUUCAGCAAUAUUACGCCCA
2. GCGCAGCAAUAUUACGGUGU
3. GGACAGCAAUAUUACGGUGA
4. CACUAGCAAUAUUACGAACG
5. UCUUAGCAAUAUUACGUUGC
6. CUCUAGCAAUAUUACGCACG
7. AUAUAGCAAUAUUACGUGAU
8. UGAGAGCAAUAUUACGCUGA

a:
-0.553
-2.83
-0.838
-0.448
-3.46
-2.45
-1.4
-2.42

Required: self-splicing fitness (ln), one value per sequence below.
1. AAGUAGCAAUAUUACGGGAA
2. UGGCAGCAAUAUUACGUAGC
3. ACUAAGCAAUAUUACGCUCG
4. GUUAAGCAAUAUUACGUUUG
5. ACCGAGCAAUAUUACGAAUU

a:
-2.74
-4.18
-0.345
-2.55
-4.54

For each of the sequences below, note its self-splicing fitness (ln).
1. ACACAGCAAUAUUACGAUGA
2. ACUAAGCAAUAUUACGCUGA
3. AACGAGCAAUAUUACGACGU
4. GGAGAGCAAUAUUACGCUAG

a:
1. -0.664
2. -2.16
3. -0.822
4. -1.3

// input: 4 sequences below; output: self-splicing fitness (ln) for each
1. UACUAGCAAUAUUACGAAGC
2. AAAAAGCAAUAUUACGGGAU
3. CAGUAGCAAUAUUACGGAUC
4. AGCGAGCAAUAUUACGGUAA

a:
1. -2.06
2. -1.62
3. -3.64
4. -2.45

Lab note: each sequence below needs its self-splicing fitness (ln) filled in.
1. GUAAAGCAAUAUUACGGAAC
2. GUUCAGCAAUAUUACGACUC
3. AGGUAGCAAUAUUACGCUUG
4. CGCGAGCAAUAUUACGUGUU
5. UUAGAGCAAUAUUACGUGCG

a:
-1.56
0.0553
-1.54
-3.1
-1.28

Provide self-splicing fitness (ln) for all items below, preserving their order.
1. UAGCAGCAAUAUUACGAUAC
2. GGAGAGCAAUAUUACGAGAG
3. AUAGAGCAAUAUUACGUCGG
4. GCAGAGCAAUAUUACGCCGC
5. AUGUAGCAAUAUUACGCAAA
6. GAGUAGCAAUAUUACGGAUC
7. ACAUAGCAAUAUUACGCCCU
8. UGUCAGCAAUAUUACGUUAC

a:
-4.05
-3.07
-3.26
-2.91
-2.34
-0.928
-0.862
-3.4

Attribution: the supplement of paper PMC7877785
